Kindly state KA for each of the entries shown.
- EXPERIMENTAL_DETAILS: Binding affinity to biotin-labeled d[CGA2T2CGTCTC2GA2T2CG] sequence of duplex DNA by surface plasmon resonance analysis

Examples with their reported KA follow.
>  <CPD_SMILES>
O=C(CCCN1CCCC1)Nc1ccc(NC(=O)c2cccc(NC(=O)Nc3cccc(C(=O)Nc4ccc(NC(=O)CCCN5CCCC5)cc4)c3)c2)cc1

>  <RECORDED_RESULT>
< 1 ×10³ /M

$$$$
>  <CPD_SMILES>
CN(C)c1ccc(Nc2c3ccc(NC(=O)CCN4CCCC4)cc3nc3cc(NC(=O)CCN4CCCC4)ccc23)cc1

>  <RECORDED_RESULT>
0.5 ×10⁶ /M

$$$$
>  <CPD_SMILES>
O=C(CCN1CCCC1)Nc1ccc(NC(=O)c2cccc(NC(=O)Nc3cccc(C(=O)Nc4ccc(NC(=O)CCN5CCCC5)cc4)c3)c2)cc1

>  <RECORDED_RESULT>
< 1 ×10³ /M

$$$$

What value of KA has been reported for the following compound? O=C(CN1CCCC1)Nc1ccc(NC(=O)c2cccc(NC(=O)Nc3cccc(C(=O)Nc4ccc(NC(=O)CN5CCCC5)cc4)c3)c2)cc1 < 1 ×10³ /M

---

For each of the compounds below, state its IC50.
- Test system: MCF7
- EXPERIMENTAL_DETAILS: Cytotoxicity against human MCF7 cells after 96 hrs by SRB assay
- Type: functional, cell-based
- TEST_CONDITIONS: MCF7, 96 h
One number for each entry, in µM.

List IC50 for every entry below, keeping the order given.
1. O=C(CCCN1CCCC1)Nc1cccc(NC(=O)c2ccc(NC(=O)Nc3ccc(C(=O)Nc4cccc(NC(=O)CCCN5CCCC5)c4)cc3)cc2)c1
2. O=C(CCN1CCCCC1)Nc1ccc(NC(=O)c2cccc(NC(=O)Nc3cccc(C(=O)Nc4ccc(NC(=O)CCN5CCCCC5)cc4)c3)c2)cc1
3. O=C(CN1CCCC1)Nc1ccc(NC(=O)c2cccc(NC(=O)Nc3cccc(C(=O)Nc4ccc(NC(=O)CN5CCCC5)cc4)c3)c2)cc1
4. O=C(CCCN1CCCC1)Nc1cc(NC(=O)Nc2cc(NC(=O)CCCN3CCCC3)cc(C(=O)Nc3ccccc3)c2)cc(C(=O)Nc2ccccc2)c1

1: 19.5; 2: 5.1; 3: 14.4; 4: 24.2

---

- EXPERIMENTAL_DETAILS: Stabilization of d[AGAG3AG2GCGCTG3AG2AG3GCT] sequence of c-kit1 G-quadruplex DNA assessed as change in melting temperature at 1 uM by FRET assay
EXPERIMENTAL_READOUT: change in melting temperature (ΔTm) (°C)
Give bare numbers, in °C.

Sample records with change in melting temperature (ΔTm):
>  <CPD_SMILES>
O=C(CN1CCCC1)Nc1ccc(NC(=O)c2cccc(NC(=O)Nc3cccc(C(=O)Nc4ccc(NC(=O)CN5CCCC5)cc4)c3)c2)cc1

>  <MEASUREMENT_UNIT>
°C

>  <change in melting temperature (ΔTm)>
3.6

$$$$
>  <CPD_SMILES>
O=C(CCCN1CCCC1)Nc1ccc(NC(=O)c2cccc(NC(=O)Nc3cccc(C(=O)Nc4ccc(NC(=O)CCCN5CCCC5)cc4)c3)c2)cc1

>  <MEASUREMENT_UNIT>
°C

>  <change in melting temperature (ΔTm)>
10.1

$$$$
>  <CPD_SMILES>
CN(C)CCC(=O)Nc1ccc(NC(=O)c2cccc(NC(=O)Nc3cccc(C(=O)Nc4ccc(NC(=O)CCN(C)C)cc4)c3)c2)cc1

>  <MEASUREMENT_UNIT>
°C

>  <change in melting temperature (ΔTm)>
2.9

$$$$

As a next step, examine the compound that follows.
Given the compound O=C(CN1CCCC1)Nc1cc(NC(=O)Nc2cc(NC(=O)CN3CCCC3)cc(C(=O)Nc3ccccc3)c2)cc(C(=O)Nc2ccccc2)c1 , what is its reported change in melting temperature (ΔTm)? 5.3
